Assayed System: Acetylcholinesterase (Homo sapiens, UniProt P22303)
Sequence (P22303 whole entry): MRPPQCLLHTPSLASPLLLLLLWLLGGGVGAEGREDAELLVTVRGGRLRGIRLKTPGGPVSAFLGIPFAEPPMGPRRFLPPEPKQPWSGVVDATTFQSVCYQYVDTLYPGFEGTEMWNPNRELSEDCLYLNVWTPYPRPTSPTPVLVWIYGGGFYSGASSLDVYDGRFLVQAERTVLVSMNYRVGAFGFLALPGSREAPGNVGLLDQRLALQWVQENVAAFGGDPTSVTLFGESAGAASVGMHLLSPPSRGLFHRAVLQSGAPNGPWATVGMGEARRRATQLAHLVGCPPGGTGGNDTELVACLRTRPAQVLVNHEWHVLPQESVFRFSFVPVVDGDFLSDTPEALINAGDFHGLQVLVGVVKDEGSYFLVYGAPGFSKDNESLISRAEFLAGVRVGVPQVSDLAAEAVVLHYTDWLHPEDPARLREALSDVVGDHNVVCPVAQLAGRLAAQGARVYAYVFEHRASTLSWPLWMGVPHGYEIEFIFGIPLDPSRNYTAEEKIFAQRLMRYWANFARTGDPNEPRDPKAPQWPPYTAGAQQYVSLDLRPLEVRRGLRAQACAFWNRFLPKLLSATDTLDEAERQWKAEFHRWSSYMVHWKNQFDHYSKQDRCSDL
pKi: −log10 of the molar value.

Smiles Notation: c1ccc2c[n+](Cc3ccc4ccc(C[n+]5ccc6ccccc6c5)cc4c3)ccc2c1
pKi: 6.12

====

Assayed System: Cholinesterase (Homo sapiens, UniProt P06276)
Sequence (P06276 whole entry): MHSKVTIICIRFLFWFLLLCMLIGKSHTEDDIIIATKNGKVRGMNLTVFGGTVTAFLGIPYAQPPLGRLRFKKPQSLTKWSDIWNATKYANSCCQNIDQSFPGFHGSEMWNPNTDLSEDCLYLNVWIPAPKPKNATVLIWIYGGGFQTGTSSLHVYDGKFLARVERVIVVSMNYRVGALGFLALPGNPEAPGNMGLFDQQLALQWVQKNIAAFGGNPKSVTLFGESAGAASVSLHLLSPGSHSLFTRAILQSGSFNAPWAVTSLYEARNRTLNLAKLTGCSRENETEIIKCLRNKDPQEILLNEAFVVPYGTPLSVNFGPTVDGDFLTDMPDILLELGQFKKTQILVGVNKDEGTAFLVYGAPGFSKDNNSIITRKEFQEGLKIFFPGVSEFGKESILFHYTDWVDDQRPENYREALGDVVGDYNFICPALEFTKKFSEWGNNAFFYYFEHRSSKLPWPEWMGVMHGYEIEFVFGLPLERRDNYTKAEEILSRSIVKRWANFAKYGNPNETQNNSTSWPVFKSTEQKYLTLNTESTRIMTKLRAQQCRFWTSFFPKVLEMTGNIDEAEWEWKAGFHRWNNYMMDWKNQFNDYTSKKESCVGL
Assay Procedure: Inhibition of human plasmatic BChE by Lineweaver-Burk plot analysis
pIC50: −log10 of the molar value.

Molecule: c1ccc2c[n+](CCCCCC[n+]3ccc4ccccc4c3)ccc2c1
pIC50: 5.70

Molecule: c1ccc2c[n+](Cc3ccc(C[n+]4ccc5ccccc5c4)cc3)ccc2c1
pIC50: 3.08

Molecule: c1ccc2c[n+](CCCCCCCCCCCC[n+]3ccc4ccccc4c3)ccc2c1
pIC50: 7.00

Molecule: c1ccc2c[n+](CCCCCCCCCC[n+]3ccc4ccccc4c3)ccc2c1
pIC50: 5.80

Molecule: c1ccc2c[n+](COC[n+]3ccc4ccccc4c3)ccc2c1
pIC50: 3.81

Molecule: c1ccc2c[n+](CCC[n+]3ccc4ccccc4c3)ccc2c1
pIC50: 2.59

Molecule: C(=C\C[n+]1ccc2ccccc2c1)/C[n+]1ccc2ccccc2c1
pIC50: 4.19

Molecule: c1ccc2c[n+](Cc3ccc4ccc(C[n+]5ccc6ccccc6c5)cc4c3)ccc2c1
pIC50: 5.40

Molecule: C(=C/C[n+]1ccc2ccccc2c1)/C[n+]1ccc2ccccc2c1
pIC50: 4.60

Molecule: c1ccc2c[n+](CCCC[n+]3ccc4ccccc4c3)ccc2c1
pIC50: 4.40

Molecule: c1ccc2c[n+](CCCCCCC[n+]3ccc4ccccc4c3)ccc2c1
pIC50: 5.52

Molecule: CC[N+](C)(C)c1cccc(O)c1 [EDROPHONIUM CHLORIDE]
pIC50: 2.86

Molecule: c1ccc2c[n+](CCCCCCCCCCC[n+]3ccc4ccccc4c3)ccc2c1
pIC50: 5.05

Molecule: c1ccc2c[n+](CCOCC[n+]3ccc4ccccc4c3)ccc2c1
pIC50: 4.29

Molecule: c1ccc2c[n+](CCCCCCCCC[n+]3ccc4ccccc4c3)ccc2c1
pIC50: 6.22

Molecule: c1cc(C[n+]2ccc3ccccc3c2)cc(C[n+]2ccc3ccccc3c2)c1
pIC50: 6.00

Molecule: c1ccc2c[n+](C[n+]3ccc4ccccc4c3)ccc2c1
pIC50: 2.85

Molecule: c1ccc2c[n+](CCCCC[n+]3ccc4ccccc4c3)ccc2c1
pIC50: 6.15

Molecule: C[N+](C)(CCNC(=O)C(=O)NCC[N+](C)(C)Cc1ccccc1Cl)Cc1ccccc1Cl [AMBENONIUM DICHLORIDE]
pIC50: 5.17

Molecule: c1ccc(C[n+]2ccc3ccccc3c2)c(C[n+]2ccc3ccccc3c2)c1
pIC50: 6.22
